All values here come from patent US11440880B2.

Tested on: nitrite levels in the culture media
Test: Nitrite level (Griess Reagent System) in LPS-challenged RAW 264.7 cells
Format: cell-based, mouse
Set-up: key: NS=not significant; a “+” sign=anti-inflammatory or increased cell numbers; a “−” sign=cell toxicity or pro-inflammatory
Settings: 1 μM; LPS 30 or 60 ng/mL, 24 h
measured_property: Nitrite

{"compound": "CC(N1Cc2c(N)cccc2C1=O)C12CC3CC(CC(C3)C1)C2 (stereo not drawn) [Compound 81]", "measured_property": "Nitrite", "observed_value": "NS"}
{"compound": "O=C1CCC(N2C(=O)c3cccc([N+](=O)[O-])c3C2=O)C(=O)N1 (stereo not drawn) [Compound 5]", "measured_property": "Nitrite", "observed_value": "NS"}
{"compound": "Nc1cccc2c1CN(C13CC4CC(CC1C4)C3)C2=O [Compound 85]", "measured_property": "Nitrite", "observed_value": "NS"}
{"compound": "C[C@H]1[C@H](N2Cc3c(cccc3[N+](=O)[O-])C2=O)C[C@@H]2C[C@H]1C2(C)C [Compound 90]", "measured_property": "Nitrite", "observed_value": "+"}
{"compound": "CC1(C)S[C@@H]2[C@H](N3Cc4ccccc4C3=O)C(=O)N2[C@H]1C(=O)O [Compound 65]", "measured_property": "Nitrite", "observed_value": "NS"}
{"compound": "O=C1c2cccc([N+](=O)[O-])c2CN1C12CC3CC(CC1C3)C2 [Compound 84]", "measured_property": "Nitrite", "observed_value": "NS"}
{"compound": "O=C1c2cccc([N+](=O)[O-])c2CN1c1nc2ccc(C(F)(F)F)cc2s1 [Compound 63]", "measured_property": "Nitrite", "observed_value": "−"}
{"compound": "CC(N1Cc2ccccc2C1=O)C12CC3CC(CC(C3)C1)C2 (stereo not drawn) [Compound 71]", "measured_property": "Nitrite", "observed_value": "NS"}
{"compound": "Nc1cccc2c1CN(C13CC4CC(CC(C4)C1)C3)C2=O [Compound 77]", "measured_property": "Nitrite", "observed_value": "NS"}
{"compound": "CC1(C)[C@@H]2CC[C@H](CN3Cc4c(N)cccc4C3=O)[C@H]1C2 [Compound 104]", "measured_property": "Nitrite", "observed_value": "−"}
{"compound": "O=C1c2ccccc2C(=O)N1c1nc2ccc(C(F)(F)F)cc2s1 [Compound 59]", "measured_property": "Nitrite", "observed_value": "+"}
{"compound": "O=C1c2cccc([N+](=O)[O-])c2CN1CC12CC3CC(CC(C3)C1)C2 [Compound 78]", "measured_property": "Nitrite", "observed_value": "NS"}
{"compound": "CC(N1Cc2c(cccc2[N+](=O)[O-])C1=O)C12CC3CC(CC(C3)C1)C2 (stereo not drawn) [Compound 80]", "measured_property": "Nitrite", "observed_value": "NS"}
{"compound": "C[C@H]1[C@H](N2Cc3c(N)cccc3C2=O)C[C@@H]2C[C@H]1C2(C)C [Compound 91]", "measured_property": "Nitrite", "observed_value": "+"}
{"compound": "O=C1c2ccccc2CN1C12CC3CC(CC(C3)C1)C2 [Compound 69]", "measured_property": "Nitrite", "observed_value": "NS"}
{"compound": "CC1(C)[C@@H]2CC[C@H](CN3Cc4c(cccc4[N+](=O)[O-])C3=O)[C@H]1C2 [Compound 103]", "measured_property": "Nitrite", "observed_value": "+"}
{"compound": "Nc1cccc2c1CN([C@H]1C[C@H]3CC[C@@H]1C3)C2=O [Compound 102]", "measured_property": "Nitrite", "observed_value": "NS"}
{"compound": "CC1(C)[C@@H]2CC[C@]1(C)[C@H](N1Cc3c(N)cccc3C1=O)C2 [Compound 95]", "measured_property": "Nitrite", "observed_value": "NS"}
{"compound": "CC(N1Cc2c(cccc2[N+](=O)[O-])C1=S)C12CC3CC(CC(C3)C1)C2 (stereo not drawn) [Compound 89]", "measured_property": "Nitrite", "observed_value": "NS"}
{"compound": "CC1(C)S[C@@H]2[C@H](N3C(=O)c4ccccc4C3=O)C(=O)N2[C@H]1C(=O)O [Compound 64]", "measured_property": "Nitrite", "observed_value": "NS"}
{"compound": "O=C1CCC(N2C(=O)c3cccnc3C2=O)C(=O)N1 (stereo not drawn) [Compound 57]", "measured_property": "Nitrite", "observed_value": "NS"}
{"compound": "Nc1cccc2c1CN([C@@H]1C[C@H]3CC[C@@H]1C3)C2=O [Compound 100]", "measured_property": "Nitrite", "observed_value": "NS"}
{"compound": "C[C@@H]1[C@@H](N2Cc3c(N)cccc3C2=O)C[C@H]2C[C@@H]1C2(C)C [Compound 93]", "measured_property": "Nitrite", "observed_value": "NS"}
{"compound": "Nc1cccc2c1CN(C13CC4CC(CC(O)(C4)C1)C3)C2=O [Compound 88]", "measured_property": "Nitrite", "observed_value": "NS"}
{"compound": "O=C1c2cccc([N+](=O)[O-])c2CN1[C@@H]1C[C@H]2CC[C@@H]1C2 [Compound 99]", "measured_property": "Nitrite", "observed_value": "+"}
{"compound": "O=C1c2cccc([N+](=O)[O-])c2CN1[C@H]1C[C@H]2CC[C@@H]1C2 [Compound 101]", "measured_property": "Nitrite", "observed_value": "+"}
{"compound": "O=C1c2cccc([N+](=O)[O-])c2CN1C12CC3CC(CC(O)(C3)C1)C2 [Compound 87]", "measured_property": "Nitrite", "observed_value": "NS"}
{"compound": "O=C1CCC(N2C(=O)c3ccncc3C2=O)C(=O)N1 (stereo not drawn) [Compound 58]", "measured_property": "Nitrite", "observed_value": "+"}
{"compound": "S=C1c2ccccc2CN1C12CC3CC(CC1C3)C2 [Compound 75]", "measured_property": "Nitrite", "observed_value": "NS"}
{"compound": "CC1(C)[C@@H]2CC[C@]1(C)[C@@H](N1C=C3C(=CC=C/C3=N\\OO)C1=O)C2 [Compound 98]", "measured_property": "Nitrite", "observed_value": "+"}
